target or system: Melanocortin receptor (M1 and M4) (Homo sapiens) (UniProt P32245+Q01726)
test details: Ratio of EC50 of Melanocortin 4 receptor to that of Melanocortin 1 receptor
Type: protein assay
# Ratio >= 7 gives Satisfied, anything below gives Not satisfied

>>> class_assignment("C=CCNC(=O)N[C@@H](Cc1ccc(Cl)cc1)C(=O)NC(Cc1ccccc1)C(=O)N[C@@H](CCCNC(=N)N)C(=O)N[C@@H](Cc1c[nH]c2ccccc12)C(N)=O (stereo in doubt)")
"Satisfied"
>>> class_assignment("CN(C)C(=O)N[C@@H](Cc1ccc(Cl)cc1)C(=O)NC(Cc1ccccc1)C(=O)N[C@@H](CCCN=C(N)N)C(=O)N[C@@H](Cc1c[nH]c2ccccc12)C(N)=O (stereo in doubt)")
"Satisfied"
>>> class_assignment("N=C(N)NCCC[C@H](NC(=O)C(Cc1ccccc1)NC(=O)[C@H](Cc1ccc(Cl)cc1)NC(=O)CCCc1ccccc1)C(=O)N[C@@H](Cc1c[nH]c2ccccc12)C(N)=O (stereo in doubt)")
"Not satisfied"
>>> class_assignment("C=CCC(=O)N[C@@H](Cc1ccc(Cl)cc1)C(=O)NC(Cc1ccccc1)C(=O)N[C@@H](CCCNC(=N)N)C(=O)N[C@@H](Cc1c[nH]c2ccccc12)C(N)=O (stereo in doubt)")
"Satisfied"

Each recorded value in this set is attributed to ChEMBL document CHEMBL1137864.
